# Test system: SR
# testProtocol: NCI tumour cell line growth inhibition, 48 h
Calls of active or inactive are those of the source. No stated cut-off is given here; in the data, active = GI50 up to about 1.1 µM and inactive = higher.
Classes used: true = active, false = inactive

* Cc1cc([C@H](C#N)c2nc3ccccc3s2)nc(Cl)n1 | false
* Cc1ccc([N+](=O)[O-])cc1S(=O)(=O)Nc1ccc(C2=NN(S(=O)(=O)c3cc([N+](=O)[O-])ccc3C)C(c3cccs3)C2)cc1 (stereo unspecified) | false
* CC1CC(c2ccccc2)Nc2nc3ccccc3n21 (stereo unspecified) | false
* CC(=O)OCC(OC(C)=O)C1C[C@H]2O[C@@H]3[C@H](C[C@H]2O1)O[C@@]1(C[C@@H]3C)C[C@H](C)[C@@H]2O[C@]3(C[C@@H]2O1)C[C@H]1O[C@H]2[C@H](C)[C@H]4OC(=O)CC5CC[C@H]6OC7[C@H]8O[C@]9(CC[C@H]%10CC(O)(CO)[C@H](CC[C@H]%11C[C@@H](C)C(O)(CO)C(C[C@@H]4O[C@H]2C[C@H]1O3)O%11)O%10)CC8O[C@@H]7[C@@H](O9)[C@H]6O5 (stereo partly specified) | true
* CN1N=C2c3ccccc3CC[C@H]2C1c1ccccc1 (stereo partly specified) | false
* CC12OC(=O)[C@@]3(O)CCC4C(C[C@H]5O[C@]56CC=CC(=O)[C@]46C)C45OC[C@H]6C(=O)O[C@@H]1C[C@@]6(C)[C@H](C4=O)C23O5 (stereo partly specified) | true
